# method notes: Plasma concentrations and pharmacokinetics after intravenous bolus of C3G (NCA and two-compartment model)
# Format: in vivo, Wistar rats
# condition notes: male, Wistar, rat, plasma, iv; 5 min after i.v. 668 nmol C3G, mean ± SEM n=4
quantity: concentration at 5 min (nM)

molecule	concentration at 5 min / nM
COc1cc(-c2[o+]c3cc(O)cc(O)c3cc2O[C@@H]2O[C@H](CO)[C@@H](O)[C@H](O)[C@H]2O)ccc1O [PN3G, Peonidin-3-O-β-glucoside]	12.3
OC[C@H]1O[C@@H](Oc2cc3c(O)cc(O)cc3[o+]c2-c2ccc(O)cc2)[C@H](O)[C@@H](O)[C@@H]1O [PG3G, Pelargonidin-3-O-β-glucoside]	2.01

[1] COc1cc(-c2[o+]c3cc(O)cc(O)c3cc2O[C@@H]2O[C@H](CO)[C@@H](O)[C@H](O)[C@H]2O)cc(OC)c1O [M3G, Malvidin-3-O-β-glucoside]
[2] COc1cc(-c2[o+]c3cc(O)cc(O)c3cc2O[C@@H]2O[C@H](CO)[C@@H](O)[C@H](O)[C@H]2O)cc(O)c1O [PT3G, Petunidin-3-O-β-glucoside]
[3] OC[C@H]1O[C@@H](Oc2cc3c(O)cc(O)cc3[o+]c2-c2ccc(O)c(O)c2)[C@H](O)[C@@H](O)[C@@H]1O [C3G, Cyanidin-3-O-β-glucoside]
Input line: Reorder: concentration at 5 min, max to min. Put the labels in the order asked and list them.
Output line: 3, 1, 2
(3: 72.2 nM, 1: 16.4 nM, 2: 1.71 nM)

----------
# method notes: Plasma concentrations and pharmacokinetics after intravenous bolus of C3G (NCA and two-compartment model)
# Format: in vivo, Wistar rats
# condition notes: male, Wistar, rat, plasma, iv, 668 nmol, two-compartment model analysis; read-out: C0 (back-extrapolated concentration)
quantity: C0 (nM)
Just the number please, in nM, no unit attached.

Input line: Which measured C0 value corresponds to OC[C@H]1O[C@@H](Oc2cc3c(O)cc(O)cc3[o+]c2-c2ccc(O)c(O)c2)[C@H](O)[C@@H](O)[C@@H]1O [C3G, Cyanidin-3-O-β-glucoside] ?
Output line: 550

----------
# method notes: Plasma concentrations and pharmacokinetics after intravenous bolus of C3G (NCA and two-compartment model)
# Assay type: in vivo, Wistar rats
# condition notes: male, Wistar, rat, plasma, iv, 668 nmol, non-compartmental analysis; read-out: Vz
quantity: Vd (L)
Just the number please, in L, no unit attached.

Input line: Which measured Vd value corresponds to OC[C@H]1O[C@@H](Oc2cc3c(O)cc(O)cc3[o+]c2-c2ccc(O)c(O)c2)[C@H](O)[C@@H](O)[C@@H]1O [C3G, Cyanidin-3-O-β-glucoside] ?
Output line: 4.92

----------
# method notes: Plasma concentrations and pharmacokinetics after intravenous bolus of C3G (NCA and two-compartment model)
# Format: in vivo, Wistar rats
# condition notes: male, Wistar, rat, plasma, iv; 2 min after i.v. 668 nmol C3G, mean ± SEM n=4
quantity: concentration at 2 min (nM)

[P] OC[C@H]1O[C@@H](Oc2cc3c(O)cc(O)cc3[o+]c2-c2ccc(O)c(O)c2)[C@H](O)[C@@H](O)[C@@H]1O [C3G, Cyanidin-3-O-β-glucoside]
[Q] COc1cc(-c2[o+]c3cc(O)cc(O)c3cc2O[C@@H]2O[C@H](CO)[C@@H](O)[C@H](O)[C@H]2O)ccc1O [PN3G, Peonidin-3-O-β-glucoside]
[R] COc1cc(-c2[o+]c3cc(O)cc(O)c3cc2O[C@@H]2O[C@H](CO)[C@@H](O)[C@H](O)[C@H]2O)cc(O)c1O [PT3G, Petunidin-3-O-β-glucoside]
Input line: Your job: order these 3 records by concentration at 2 min, ascending. Put the labels in the order asked and list them.
Output line: R, Q, P
(R: 4.95 nM, Q: 13.1 nM, P: 93.8 nM)

----------
# method notes: Brain concentrations and tissue pharmacokinetics after intravenous C3G
# Format: in vivo, Wistar rats
# condition notes: male, Wistar, rat, intravenous, 668 nmol; brain vs plasma; read-out: AUC in brain as share of that in plasma
quantity: Kp
Note: the reply should be a number with no unit written.

Input line: Which measured Kp value corresponds to COc1cc(-c2[o+]c3cc(O)cc(O)c3cc2O[C@@H]2O[C@H](CO)[C@@H](O)[C@H](O)[C@H]2O)ccc1O [PN3G, Peonidin-3-O-β-glucoside] ?
Output line: 0.0978

----------
# method notes: Liver concentrations and tissue pharmacokinetics after intravenous C3G
# Assay type: in vivo, Wistar rats
# condition notes: 15 min after i.v. 668 nmol C3G
quantity: Mean concentration in liver (pmol/g)

molecule	endpoint result
COc1cc(-c2[o+]c3cc(O)cc(O)c3cc2O[C@@H]2O[C@H](CO)[C@@H](O)[C@H](O)[C@H]2O)cc(O)c1O [PT3G, Petunidin-3-O-β-glucoside]	1.60

[1] OC[C@H]1O[C@@H](Oc2cc3c(O)cc(O)cc3[o+]c2-c2ccc(O)c(O)c2)[C@H](O)[C@@H](O)[C@@H]1O [C3G, Cyanidin-3-O-β-glucoside]
[2] COc1ccc(-c2[o+]c3cc(O)cc(O)c3cc2O[C@@H]2O[C@H](CO)[C@@H](O)[C@H](O)[C@H]2O)cc1O
[3] COc1cc(-c2[o+]c3cc(O)cc(O)c3cc2O[C@@H]2O[C@H](CO)[C@@H](O)[C@H](O)[C@H]2O)ccc1O [PN3G, Peonidin-3-O-β-glucoside]
Input line: Number of molecules to sort: 3. Sort criterion: Mean concentration in liver, ascending. Put the labels in the order asked and list them.
Output line: 2, 1, 3

----------
# method notes: Plasma concentrations and pharmacokinetics after intravenous bolus of C3G (NCA and two-compartment model)
# Type: in vivo, Wistar rats
# condition notes: male, Wistar, rat, plasma, iv, 668 nmol, non-compartmental analysis; read-out: t1/2 (terminal elimination half-life)
quantity: half-life (min)
Just the number please, in min, no unit attached.

Input line: Which measured half-life value corresponds to OC[C@H]1O[C@@H](Oc2cc3c(O)cc(O)cc3[o+]c2-c2ccc(O)c(O)c2)[C@H](O)[C@@H](O)[C@@H]1O [C3G, Cyanidin-3-O-β-glucoside] ?
Output line: 6.9

----------
# method notes: Liver concentrations and tissue pharmacokinetics after intravenous C3G
# Assay type: in vivo, Wistar rats
# condition notes: 5 min after i.v. 668 nmol C3G
quantity: Mean concentration in liver (pmol/g)

Worked examples follow.
molecule	endpoint result
COc1cc(-c2[o+]c3cc(O)cc(O)c3cc2O[C@@H]2O[C@H](CO)[C@@H](O)[C@H](O)[C@H]2O)cc(O)c1O [PT3G, Petunidin-3-O-β-glucoside]	1.09
COc1ccc(-c2[o+]c3cc(O)cc(O)c3cc2O[C@@H]2O[C@H](CO)[C@@H](O)[C@H](O)[C@H]2O)cc1O	15.85

[a] COc1cc(-c2[o+]c3cc(O)cc(O)c3cc2O[C@@H]2O[C@H](CO)[C@@H](O)[C@H](O)[C@H]2O)ccc1O [PN3G, Peonidin-3-O-β-glucoside]
[b] OC[C@H]1O[C@@H](Oc2cc3c(O)cc(O)cc3[o+]c2-c2ccc(O)c(O)c2)[C@H](O)[C@@H](O)[C@@H]1O [C3G, Cyanidin-3-O-β-glucoside]
Input line: Of a and b , which shows the smaller Mean concentration in liver value? Reply briefly: the label of your chosen item.
Output line: b
(b: 20.91 pmol/g, a: 364.74 pmol/g)

----------
# method notes: Plasma concentrations and pharmacokinetics after intravenous bolus of C3G (NCA and two-compartment model)
# Assay type: in vivo, Wistar rats
# condition notes: male, Wistar, rat, plasma, intravenous, 668 nmol, non-compartmental analysis; read-out: C0 (back-extrapolated concentration)
quantity: C0 (nM)
Just the number please, in nM, no unit attached.

Input line: Which measured C0 value corresponds to OC[C@H]1O[C@@H](Oc2cc3c(O)cc(O)cc3[o+]c2-c2ccc(O)c(O)c2)[C@H](O)[C@@H](O)[C@@H]1O [C3G, Cyanidin-3-O-β-glucoside] ?
Output line: 429

----------
# method notes: Brain concentrations and tissue pharmacokinetics after intravenous C3G
# Type: in vivo, Wistar rats
# condition notes: male, Wistar, rat, brain, iv, 668 nmol; 15 sec after i.v.; read-out: Corresponding brain concentration assuming free diffusion in a water compartment
quantity: concentration at 15 sec

Input line: Which measured concentration at 15 sec value corresponds to OC[C@H]1O[C@@H](Oc2cc3c(O)cc(O)cc3[o+]c2-c2ccc(O)c(O)c2)[C@H](O)[C@@H](O)[C@@H]1O [C3G, Cyanidin-3-O-β-glucoside] ?
Output line: ~50 nM

----------
# method notes: Plasma concentrations and pharmacokinetics after intravenous bolus of C3G (NCA and two-compartment model)
# Type: in vivo, Wistar rats
# condition notes: male, Wistar, rat, plasma, iv, 668 nmol, non-compartmental analysis; read-out: C0 (back-extrapolated concentration)
quantity: C0 (µM)
Just the number please, in µM, no unit attached.

Input line: Which measured C0 value corresponds to OC[C@H]1O[C@@H](Oc2cc3c(O)cc(O)cc3[o+]c2-c2ccc(O)c(O)c2)[C@H](O)[C@@H](O)[C@@H]1O [C3G, Cyanidin-3-O-β-glucoside] ?
Output line: 0.429
